// data source = ChEMBL document CHEMBL4680065

Recorded pIC50 for the following compounds
Molecular target: Protein arginine N-methyltransferase 7 (Homo sapiens)
Sequence (Q9NVM4 whole entry): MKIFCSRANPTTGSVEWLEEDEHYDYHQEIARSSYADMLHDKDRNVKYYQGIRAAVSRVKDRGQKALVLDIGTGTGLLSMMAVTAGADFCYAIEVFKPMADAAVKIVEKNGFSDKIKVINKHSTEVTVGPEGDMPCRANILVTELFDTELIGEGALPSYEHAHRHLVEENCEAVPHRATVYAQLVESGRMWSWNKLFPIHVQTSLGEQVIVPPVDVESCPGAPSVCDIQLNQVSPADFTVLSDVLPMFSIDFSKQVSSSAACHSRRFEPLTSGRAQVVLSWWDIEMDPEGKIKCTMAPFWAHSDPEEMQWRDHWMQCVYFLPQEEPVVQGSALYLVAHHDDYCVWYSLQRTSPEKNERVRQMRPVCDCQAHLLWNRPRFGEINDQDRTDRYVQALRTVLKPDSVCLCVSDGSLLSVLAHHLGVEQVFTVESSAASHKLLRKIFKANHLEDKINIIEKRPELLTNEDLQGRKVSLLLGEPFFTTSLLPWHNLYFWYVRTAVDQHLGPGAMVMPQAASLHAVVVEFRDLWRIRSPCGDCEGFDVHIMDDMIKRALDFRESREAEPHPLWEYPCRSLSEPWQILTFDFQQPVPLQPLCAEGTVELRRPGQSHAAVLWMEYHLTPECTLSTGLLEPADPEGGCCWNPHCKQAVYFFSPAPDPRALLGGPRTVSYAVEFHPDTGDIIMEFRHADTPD
Assay: Inhibition of recombinant GST-tagged PRMT7 (unknown origin) expressed in Escherichia coli using biotin-labeled SMD1 as substrate incubated for 120 mins in presence of [3H]-SAM cofactor by scintillation proximity assay
pIC50: −log10 of the molar value.

{"columns": ["COMPOUND", "pIC50"],
 "data": [
  ["Nc1nc(N)c2nc3c(ccc4ccccc43)nc2n1", 3.90],
  ["N=C(N)c1ccc(Nc2ccc(-c3cc4ccc(C(=N)N)cc4[nH]3)cc2)cc1", 4.63],
  ["CNCC(=O)NC1=CC2C(=O)c3ccc(NC(=O)CNC)cc3C(=O)C2C=C1 (stereo not given)", 3.54],
  ["c1cc2cc(-c3ccc4oc(C5=NCCN5)cc4c3)[nH]c2cc1C1=NCCN1", 3.61],
  ["CNC(=N)N/N=C(/C)c1ccc2oc3ccc(/C(C)=N/NC(=N)NC)cc3c2c1", 4.63]
]}

* * *

Listed here: items and their measured pIC50.
molecular target: Protein arginine N-methyltransferase 1 (Homo sapiens, UniProt Q99873); test: Inhibition of recombinant human His-tagged PRMT1 expressed in Escherichia coli BL21 (DE3) using biotin-labeled histone H4-20 as substrate incubated for 8 mins in presence of [3H]-SAM cofactor by scintillation proximity assay
Sequence (Q99873 whole entry): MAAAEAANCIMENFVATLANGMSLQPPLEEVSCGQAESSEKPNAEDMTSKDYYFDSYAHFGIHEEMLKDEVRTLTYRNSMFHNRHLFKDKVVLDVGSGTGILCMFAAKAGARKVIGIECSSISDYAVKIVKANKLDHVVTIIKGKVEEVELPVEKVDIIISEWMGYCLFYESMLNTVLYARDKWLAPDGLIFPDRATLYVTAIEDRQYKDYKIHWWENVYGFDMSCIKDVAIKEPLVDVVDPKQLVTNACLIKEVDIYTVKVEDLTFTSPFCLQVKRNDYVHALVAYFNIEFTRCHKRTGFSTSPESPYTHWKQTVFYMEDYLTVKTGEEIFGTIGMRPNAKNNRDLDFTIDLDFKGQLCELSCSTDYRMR
pIC50: −log10 of the molar value.

{"columns": ["SMILES_STR", "pIC50"],
 "data": [
  ["N=C(N)c1ccc2cc(/C=C/c3cc4ccc(C(=N)N)cc4o3)[nH]c2c1", 5.62],
  ["C(=C\\c1cc2ccc(C3=NCCN3)cc2[nH]1)/c1ccc(Oc2ccc(C3=NCCN3)cc2)cc1", 4.79],
  ["CNC(=N)N/N=C(/C)c1ccc2oc3ccc(/C(C)=N/NC(=N)NC)cc3c2c1", 5.16]
]}

* * *

target: PRMT5/MEP50 complex (Homo sapiens, UniProt O14744); assay: Inhibition of PRMT5/MEP50 (unknown origin) using biotin-labeled histone H4-20 peptide as substrate incubated for 8 mins in presence of [3H]-SAM cofactor by scintillation proximity assay
Sequence (O14744 whole entry): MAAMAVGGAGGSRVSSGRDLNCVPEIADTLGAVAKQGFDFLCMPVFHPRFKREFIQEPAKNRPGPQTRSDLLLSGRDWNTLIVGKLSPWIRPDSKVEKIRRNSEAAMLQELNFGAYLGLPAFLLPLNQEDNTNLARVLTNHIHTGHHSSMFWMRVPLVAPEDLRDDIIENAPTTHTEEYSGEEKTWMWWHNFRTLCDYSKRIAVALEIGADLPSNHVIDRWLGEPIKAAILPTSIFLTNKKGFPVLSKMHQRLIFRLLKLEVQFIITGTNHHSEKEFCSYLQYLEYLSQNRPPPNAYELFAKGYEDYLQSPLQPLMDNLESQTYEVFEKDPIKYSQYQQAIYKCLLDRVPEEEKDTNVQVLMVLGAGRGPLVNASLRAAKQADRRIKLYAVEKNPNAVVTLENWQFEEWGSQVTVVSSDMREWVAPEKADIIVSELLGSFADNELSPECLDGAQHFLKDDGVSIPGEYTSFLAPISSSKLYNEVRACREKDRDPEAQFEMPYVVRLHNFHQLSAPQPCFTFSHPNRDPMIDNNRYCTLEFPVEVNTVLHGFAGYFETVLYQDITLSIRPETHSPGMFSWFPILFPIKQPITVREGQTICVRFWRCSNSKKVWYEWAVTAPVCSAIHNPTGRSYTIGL
Sequence (Q9BQA1 whole entry, further chain): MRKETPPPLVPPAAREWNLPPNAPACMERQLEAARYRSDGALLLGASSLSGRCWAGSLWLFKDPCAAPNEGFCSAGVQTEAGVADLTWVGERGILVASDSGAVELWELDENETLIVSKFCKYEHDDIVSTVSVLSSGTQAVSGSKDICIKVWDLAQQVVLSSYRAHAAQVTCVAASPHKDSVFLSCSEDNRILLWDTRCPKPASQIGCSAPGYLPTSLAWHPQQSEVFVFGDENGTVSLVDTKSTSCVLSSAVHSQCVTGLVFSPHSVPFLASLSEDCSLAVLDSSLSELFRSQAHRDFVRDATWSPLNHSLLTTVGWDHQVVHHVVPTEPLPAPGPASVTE
Recorded IC50 for the following compounds
MEASURED_QUANTITY: IC50 (µM)

{"columns": ["COMPOUND", "QUALIFIER_OPERATOR", "RESULT_NUMBER"],
 "data": [
  ["Nc1nc(N)c2nc3c(ccc4ccccc43)nc2n1", "=", 62.1],
  ["CNCC(=O)NC1=CC2C(=O)c3ccc(NC(=O)CNC)cc3C(=O)C2C=C1 (stereo not given)", ">", 500],
  ["CNC(=N)N/N=C(/C)c1ccc2oc3ccc(/C(C)=N/NC(=N)NC)cc3c2c1", "=", 18.9],
  ["c1cc2cc(-c3ccc4oc(C5=NCCN5)cc4c3)[nH]c2cc1C1=NCCN1", ">", 500],
  ["N=C(N)c1ccc(Nc2ccc(-c3cc4ccc(C(=N)N)cc4[nH]3)cc2)cc1", "=", 6.8]
]}
